So I've got a bunch of molecules here, and I need their viability, T/C values.
Test system: 377384-186-R-J1-PDC complex spheroid viability
test.summary: Anticancer human tumor 377384-186-R-J1-PDC patient-derived pancreatic carcinoma cell line growth inhibition [CLK]
recorded.conditions: second compound 0.1 µM; first compound 0.1 µM; stronger effect = lower value
Text: A high-throughput screen of multi-cell type tumor spheroids was designed to identify active combinations of […] and targeted small molecules. Complex spheroids include a stromal component modeled by human endothelial cells (HUVEC) and fibroblasts modeled by human mesenchymal stem cells (MSCs). […] Compounds. […] If the clinical Cmax for an agent had not been determined, the highest concentration tested was 10 microM. […]
Could you give me the number in %? Just the number is fine.

Ask: Query viability, T/C on 377384-186-R-J1-PDC complex spheroid viability for C#Cc1c(F)ccc2cc(O)cc(-c3ncc4c(N5CC6CCC(C5)N6)nc(OCC56CCCN5CC(F)C6)nc4c3F)c12 (stereo not given) + CNC(=O)c1ccc(Nc2nc(OC3CCCC3)c3c(-c4ccc5nc(C)oc5c4)c[nH]c3n2)c(OC)c1
Result: 8.53

Ask: Fill in the recorded viability, T/C for this molecule, with 377384-186-R-J1-PDC complex spheroid viability as test system: O=c1[nH]cc(F)c(=O)[nH]1 + CNC(=O)c1ccc(Nc2nc(OC3CCCC3)c3c(-c4ccc5nc(C)oc5c4)c[nH]c3n2)c(OC)c1
Result: 50.9

Ask: Requested read-out viability, T/C, target or system 377384-186-R-J1-PDC complex spheroid viability, entry CC(CO)NC(=O)c1cc(-c2ccc(Cl)cc2)nn(-c2cnn(C)c2)c1=O (stereo not given) + CN1CCN(c2cc(C(=O)Nc3cc4cc(-c5cnn(C)c5)ccc4cn3)ccn2)CC1
Result: 105

Ask: I'm curious: which viability, T/C was measured for C=CC(=O)N1CCN(c2nc(=O)n(-c3c(C)ccnc3C(C)C)c3nc(-c4c(O)cccc4F)c(F)cc23)C(C)C1 (stereo not given) + CNC(=O)c1ccc(Nc2nc(OC3CCCC3)c3c(-c4ccc5nc(C)oc5c4)c[nH]c3n2)c(OC)c1 tested on 377384-186-R-J1-PDC complex spheroid viability?
Result: 64.7

Ask: I'm curious: which viability, T/C was measured for COC1C=CCC(C)C(C)S(=O)(=O)NC(=O)c2ccc3c(c2)N(CC2CCC21)CC1(CCCc2cc(Cl)ccc21)CO3 (stereo not given) + CNC(=O)c1ccc(Nc2nc(OC3CCCC3)c3c(-c4ccc5nc(C)oc5c4)c[nH]c3n2)c(OC)c1 tested on 377384-186-R-J1-PDC complex spheroid viability?
Result: 61.9

Ask: Could you share what viability, T/C was measured for CC(Nc1ccc2c(c1)OCCn1cc(N3C(=O)OCC3C(F)F)nc1-2)C(N)=O (stereo not given) + CN1CCN(c2cc(C(=O)Nc3cc4cc(-c5cnn(C)c5)ccc4cn3)ccn2)CC1 , tested on 377384-186-R-J1-PDC complex spheroid viability?;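 note: luminescence signal used as a stand-in for viable cells; spheroids exposed to agents for 7 days before reading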
Result: 79.3

Ask: // fetch 377384-186-R-J1-PDC complex spheroid viability viability, T/C for CC(CO)NC(=O)c1cc(-c2ccc(Cl)cc2)nn(-c2cnn(C)c2)c1=O (stereo not given) + CNC(=O)c1ccc(Nc2nc(OC3CCCC3)c3c(-c4ccc5nc(C)oc5c4)c[nH]c3n2)c(OC)c1
Result: 75.6

Ask: API: value(readout= viability, T/C, system= 377384-186-R-J1-PDC complex spheroid viability, query= CC1COCCN1c1cc(C2(S(C)(=N)=O)CC2)nc(-c2ccnc3[nH]ccc23)n1 (stereo not given) + CNC(=O)c1ccc(Nc2nc(OC3CCCC3)c3c(-c4ccc5nc(C)oc5c4)c[nH]c3n2)c(OC)c1 );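 note: luminescence signal used as a stand-in for viable cells; spheroids exposed to agents for 7 days before reading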
Result: 56.8

Ask: Form: Entry = CCN1CCN(Cc2ccc(Nc3ncc(F)c(-c4cc(F)c5nc(C)n(C(C)C)c5c4)n3)nc2)CC1 + CNC(=O)c1ccc(Nc2nc(OC3CCCC3)c3c(-c4ccc5nc(C)oc5c4)c[nH]c3n2)c(OC)c1 | System = 377384-186-R-J1-PDC complex spheroid viability | viability, T/C = ____;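 note: luminescence signal used as a stand-in for viable cells; spheroids exposed to agents for 7 days before reading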
Result: 41.1

Ask: Lab request: please report viability, T/C under test system 377384-186-R-J1-PDC complex spheroid viability for COC1C=CCC(C)C(C)S(=O)(=O)NC(=O)c2ccc3c(c2)N(CC2CCC21)CC1(CCCc2cc(Cl)ccc21)CO3 (stereo not given) + CN1CCN(c2cc(C(=O)Nc3cc4cc(-c5cnn(C)c5)ccc4cn3)ccn2)CC1;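 note: luminescence signal used as a stand-in for viable cells; spheroids exposed to agents for 7 days before reading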
Result: 69.2
